B1: CPEB3 Ribozyme (parent)
chain: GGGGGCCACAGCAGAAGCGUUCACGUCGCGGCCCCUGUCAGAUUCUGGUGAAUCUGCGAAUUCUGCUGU

variants of: B1; assay: self-cleavage, relative activity (ratio to wild type); higher = more cleavage; co-transcriptional
Documented self-cleavage across a set of variants
Lab note: write the figure by itself, no unit.

G17U C66G ... 0.24
G1U C63A ... 0.101
U20G C29G ... 0.128

Entry under review: G4C G5C . Reported self-cleavage?
0.212

Give the measured self-cleavage of C35G G47U .
0.553

Recorded self-cleavage of U46G G47C , please.
1.02

# self-cleavage lookup, item A8C C9A
1.01

Value lookup for self-cleavage; key = C6G C54G
0.0918

For the variant shown here, U20A A51G , give the reported self-cleavage.
0.186

Returns the measured self-cleavage for the input variant. Input: C18U A60G
0.809
